# System Tested: human sodium-dependent glucose transporter 1 (SGLT1, SLC5A1) (Homo sapiens, UniProt P13866)
# Construct: Bases 11 to 2005 correspond to the complete coding region of human SGLT1
# Sequence (P13866 whole entry): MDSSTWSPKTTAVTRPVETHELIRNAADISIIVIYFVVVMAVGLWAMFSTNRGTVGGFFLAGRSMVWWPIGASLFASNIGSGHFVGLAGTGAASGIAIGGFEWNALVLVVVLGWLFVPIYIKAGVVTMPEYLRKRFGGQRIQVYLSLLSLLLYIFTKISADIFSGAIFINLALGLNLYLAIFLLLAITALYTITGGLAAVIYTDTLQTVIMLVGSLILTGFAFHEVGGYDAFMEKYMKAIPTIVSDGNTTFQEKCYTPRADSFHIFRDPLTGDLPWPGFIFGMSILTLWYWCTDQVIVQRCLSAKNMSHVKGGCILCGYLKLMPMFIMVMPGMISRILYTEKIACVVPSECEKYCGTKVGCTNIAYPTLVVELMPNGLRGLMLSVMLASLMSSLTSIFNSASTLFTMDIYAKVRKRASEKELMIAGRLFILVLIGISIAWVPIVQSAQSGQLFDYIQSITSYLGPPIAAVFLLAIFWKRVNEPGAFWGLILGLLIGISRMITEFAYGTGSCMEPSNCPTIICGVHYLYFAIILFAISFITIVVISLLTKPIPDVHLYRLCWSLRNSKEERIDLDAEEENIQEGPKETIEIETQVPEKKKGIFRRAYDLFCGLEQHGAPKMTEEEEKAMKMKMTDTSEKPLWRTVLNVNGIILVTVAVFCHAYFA
# Assay Info: Inhibition of the transport activity of human SGLT1 in vitro (α-MDG uptake in CHO-TRex-hSGLT1 cells)
# Experimental Context: 50 μM α-MDG, 30 min at room temperature
# key: entry, value: IC50
Please give a number only; it is taken to be in nM.

Recorded results for 2 compounds are shown here.
CCOC(=O)OCC1OC(c2ccc(Cl)c(Cc3ccc(OCC)cc3)c2)C(O)C(O)C1(F)F (stereo not drawn) [Example 18]	42000
OC[C@H]1O[C@@H](c2ccc(Cl)c(Cc3ccc(O)cc3)c2)[C@H](O)[C@@H](O)C1(F)F [Example 30]	1200

Then this compound:
// recorded IC50 for OCC1OC(c2ccc(Cl)c(Cc3cc4ccccc4s3)c2)C(O)C(O)C1F (stereo not drawn) [Example 7] : 1300
